Recorded values, source the supplement of paper PMC10567573.

B1: TOR1AIP2 (parent)
chain: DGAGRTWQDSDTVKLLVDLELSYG

- Variants of: B1
- assay: protein stability index of a GFP-peptide fusion (GPS, HEK-293T) (PSI 1-6); higher = more stable;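 further: lentivirally expressed fusions sorted by FACS into six bins by GFP to DsRed ratio, PSI derived from sequencing read proportions per bin multiplied by bin number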
- particulars: c terminus: a fixed tail appended
value.type: protein stability index
// keep it numeric: no unit symbol after the value

query: Which protein stability index value belongs to L15E ?
result: 4.54

query: Thanks! And A3P ?
result: 1.13

query: Thanks! And L15G ?
result: 3.75

query: Thanks! And S10D ?
result: 3.02

query: Thanks! And S10R ?
result: 2.08

query: Thanks! And V17N ?
result: 4.01

query: Thanks! And L19I ?
result: 2.03

query: Thanks! And R5C ?
result: 1.13

query: Thanks! And K14E ?
result: 1.88

query: Thanks! And Y23T ?
result: 2.56

query: Thanks! And D1G ?
result: 1.68

query: Thanks! And G24E ?
result: 1.71

query: Thanks! And W7C ?
result: 2.79

query: Thanks! And S22R ?
result: 1.84

query: Thanks! And K14D ?
result: 1.91

query: Thanks! And W7E ?
result: 4.3

query: Thanks! And L19F ?
result: 2.43

query: Thanks! And D1H ?
result: 2.29

query: Thanks! And L15R ?
result: 3.9

query: Thanks! And Q8T ?
result: 4.32

query: Thanks! And K14W ?
result: 1.5

query: Thanks! And R5T ?
result: 1.46

query: Thanks! And L16K ?
result: 4.25

query: Thanks! And G2T ?
result: 4.39

query: Thanks! And V17F ?
result: 1.78

query: Thanks! And D1N ?
result: 1.32

query: Thanks! And L19E ?
result: 4.55

query: Thanks! And G24D ?
result: 1.8

query: Thanks! And V13C ?
result: 2.04

query: Thanks! And E20D ?
result: 1.56

query: Thanks! And L16R ?
result: 2.98

query: Thanks! And L21N ?
result: 2.07

query: Thanks! And L15Q ?
result: 4.28

query: Thanks! And T12H ?
result: 1.35

query: Thanks! And L21M ?
result: 2.65

query: Thanks! And L19T ?
result: 4.11

query: Thanks! And G2E ?
result: 1.91

query: Thanks! And Q8N ?
result: 2.26

query: Thanks! And D18C ?
result: 2.22

query: Thanks! And L21F ?
result: 1.6

query: Thanks! And L15N ?
result: 4.18

query: Thanks! And G4Q ?
result: 1.43

query: Thanks! And S10E ?
result: 3.06

query: Thanks! And L16Q ?
result: 3.31

query: Thanks! And D11S ?
result: 1.52

query: Thanks! And D9H ?
result: 1.09

query: Thanks! And S10C ?
result: 2.18

query: Thanks! And K14N ?
result: 1.74

query: Thanks! And G2C ?
result: 3.68

query: Thanks! And L21D ?
result: 2

query: Thanks! And G24P ?
result: 2.77

query: Thanks! And L19D ?
result: 4.31

query: Thanks! And D9V ?
result: 2.09

query: Thanks! And Y23A ?
result: 1.1

query: Thanks! And R5D ?
result: 2.39

query: Thanks! And A3R ?
result: 1.79

query: Thanks! And E20R ?
result: 1.61

query: Thanks! And L16W ?
result: 2.88

query: Thanks! And G24A ?
result: 2.47

query: Thanks! And L21C ?
result: 1.75

query: Thanks! And D18K ?
result: 1.98

query: Thanks! And D9E ?
result: 1.5

query: Thanks! And K14G ?
result: 1.91

query: Thanks! And S22L ?
result: 1.89

query: Thanks! And V13I ?
result: 1.06

query: Thanks! And L15V ?
result: 2.53

query: Thanks! And G4N ?
result: 2.05

query: Thanks! And S22W ?
result: 1.47

query: Thanks! And T12Q ?
result: 1.6

query: Thanks! And V13L ?
result: 2.07

query: Thanks! And S10H ?
result: 1.04

query: Thanks! And L16I ?
result: 2.57

query: Thanks! And D11P ?
result: 1.66

query: Thanks! And S22A ?
result: 3.17

query: Thanks! And Y23K ?
result: 3.9

query: Thanks! And G2D ?
result: 2.53

query: Thanks! And Y23D ?
result: 1.91

query: Thanks! And E20N ?
result: 2.08

query: Thanks! And T6A ?
result: 1.74

query: Thanks! And W7D ?
result: 4.15

query: Thanks! And W7P ?
result: 2.45

query: Thanks! And S22K ?
result: 3.51

query: Thanks! And S10A ?
result: 1.92

query: Thanks! And V13M ?
result: 2.77

query: Thanks! And D11K ?
result: 1.53

query: Thanks! And K14S ?
result: 1.61

query: Thanks! And D11G ?
result: 1.18

query: Thanks! And S10N ?
result: 1.6
